# Type: in vivo, human
# condition context: both, human, plasma, po, 30 mg
quantity: Vd/F (L)
# number only, unit L dropped from output

Notebook: CCOc1cc([C@@H](CS(C)(=O)=O)N2C(=O)c3cccc(NC(C)=O)c3C2=O)ccc1OC [apremilast] , Vd/F read as 119

----------
# Type: in vivo, human
# condition context: both, human, plasma, po
quantity: Vd/F (L)
Provide the reading as a plain figure in L.

Form: compound = CCOc1cc([C@@H](CS(C)(=O)=O)N2C(=O)c3cccc(NC(C)=O)c3C2=O)ccc1OC [apremilast] ; Vd/F = 342

----------
# Format: in vivo, human
# condition context: both, human, plasma, po, 30 mg
quantity: Tmax

Reported Tmax for CCOc1cc([C@@H](CS(C)(=O)=O)N2C(=O)c3cccc(NC(C)=O)c3C2=O)ccc1OC [apremilast] was 2 h
